Molecular target: HCV NS3/4A protease complex (BMS strain, genotype 1a) (Hepatitis C virus genotype 1a, UniProt P27958, C1454S)
Construct: DNA encoding the recombinant HCV NS3/4A protease complex (amino acids 1027 to 1711) for these strains; inferred from the pET21b vector and Ni-NTA purification; made in house; host or cells: Escherichia coli BL21 (DE3), pET21b
Sequence (P27958 1658-1714, looked up, stated change not applied): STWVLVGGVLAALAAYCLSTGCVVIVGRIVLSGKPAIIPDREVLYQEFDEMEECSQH
Sequence (P27958 1027-1657, looked up, stated change not applied): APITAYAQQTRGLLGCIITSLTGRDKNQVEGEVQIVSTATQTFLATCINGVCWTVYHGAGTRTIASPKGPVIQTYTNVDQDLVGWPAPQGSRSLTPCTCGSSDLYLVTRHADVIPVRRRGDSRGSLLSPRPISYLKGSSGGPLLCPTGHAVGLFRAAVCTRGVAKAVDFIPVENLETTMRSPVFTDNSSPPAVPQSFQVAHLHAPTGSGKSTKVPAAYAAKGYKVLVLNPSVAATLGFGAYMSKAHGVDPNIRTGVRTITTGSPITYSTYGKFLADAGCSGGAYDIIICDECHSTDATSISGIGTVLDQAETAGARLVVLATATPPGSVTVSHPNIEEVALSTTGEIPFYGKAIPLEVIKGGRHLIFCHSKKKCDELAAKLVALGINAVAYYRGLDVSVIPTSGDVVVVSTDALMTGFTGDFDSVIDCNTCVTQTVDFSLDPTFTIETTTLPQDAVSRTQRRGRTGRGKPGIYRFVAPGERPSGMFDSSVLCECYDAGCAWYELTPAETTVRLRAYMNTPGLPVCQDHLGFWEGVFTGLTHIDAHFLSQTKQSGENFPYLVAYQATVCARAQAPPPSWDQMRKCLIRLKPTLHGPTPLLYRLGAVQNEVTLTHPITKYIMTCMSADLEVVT
Experiment: Recombinant HCV NS3/4A protease complex FRET peptide assay, BMS strain
Format: biochemical
Settings: IC50 range, NS3/4A BMS Strain
pIC50: −log10 of the molar value.
ASSAY_ENDPOINT: pIC50

Below, 3 molecules whose answers are already recorded.
C=C[C@@H]1C[C@]1(NC(=O)[C@@H]1C[C@@H](Oc2cc(-c3ccccc3)nc3cc(OC)ccc23)CN1C(=O)[C@@H](NC(=O)OC(C)(C)C)C(C)(C)C)C(=O)NS(=O)(=O)C1(CC)CC1	> 7.30
C=C[C@@H]1C[C@]1(NC(=O)[C@@H]1C[C@@H](Oc2cc(-c3ccccc3)nc3cc(OC)ccc23)CN1C(=O)[C@@H](NC(=O)OC(C)(C)C)C(C)(C)C)C(=O)NS(=O)(=O)C1(Cc2cccnc2)CC1	> 7.30
C=C[C@@H]1C[C@]1(NC(=O)[C@@H]1C[C@@H](Oc2cc(-c3ccccc3)nc3cc(OC)ccc23)CN1C(=O)[C@@H](NC(=O)OC1CCCC1)C(C)(C)C)C(=O)NS(=O)(=O)C1(Cc2ccccc2)CC1	> 7.30

Would you kindly look at the next entry?
QUERY: Using the record for C=C[C@@H]1C[C@]1(NC(=O)[C@@H]1C[C@@H](Oc2cc(-c3ccccc3)nc3cc(OC)ccc23)CN1C(=O)[C@@H](NC(=O)OC(C)(C)C)C(C)(C)C)C(=O)NS(=O)(=O)C1(COC(C)C)CC1 , report its pIC50.
RESULT: > 7.30

* * *

Target: HCV NS3/4A protease complex (BMS strain, genotype 1a) (Hepatitis C virus genotype 1a, UniProt P27958, C1454S)
Construct: DNA encoding the recombinant HCV NS3/4A protease complex (amino acids 1027 to 1711) for these strains; inferred from the pET21b vector and Ni-NTA purification; made in house; host or cells: Escherichia coli BL21 (DE3), pET21b
Assay: Recombinant HCV NS3/4A protease complex FRET peptide assay, BMS strain
Format: biochemical
Conditions: IC50 range, NS3/4A BMS Strain
Source text: The purpose of this in vitro assay was to measure the inhibition of HCV NS3 protease complexes, derived from the BMS, H77C or J416S strains, as described below, by compounds of the present invention. Serum from an HCV-infected patient was obtained from Dr. T. Wright, San Francisco Hospital. […]
ASSAY_ENDPOINT: IC50

// each compound listed below needs its IC50
1. C=C[C@@H]1C[C@]1(NC(=O)[C@@H]1C[C@@H](Oc2cc(-c3ccccc3)nc3cc(OC)ccc23)CN1C(=O)[C@@H](NC(=O)CC(C)(C)C)C(C)(C)C)C(=O)NS(=O)(=O)C1(Cc2ccccc2)CC1 [Compound 110]
2. C=CCC1(S(=O)(=O)NC(=O)C2(NC(=O)[C@@H]3C[C@@H](Oc4cc(-c5ccccc5)nc5cc(OC)ccc45)CN3C(=O)[C@@H](NC(=O)OC(C)(C)C)C(C)(C)C)CC2)CC1 [Compound 75]
3. C=C[C@@H]1C[C@]1(NC(=O)[C@@H]1C[C@@H](Oc2cc(-c3ccccc3)nc3cc(OC)ccc23)CN1C(=O)[C@@H](NC(=O)OC(C)(C)C)C(C)(C)C)C(=O)NS(=O)(=O)C1(Cc2ncoc2-c2ccccc2)CC1 [Compound 46]
4. C=C[C@@H]1C[C@]1(NC(=O)[C@@H]1C[C@@H](Oc2cc(-c3nc(C(C)C)cs3)nc3cc(OC)ccc23)CN1C(=O)[C@@H](NC(=O)OC(C)(C)C)C(C)(C)C)C(=O)OS(=O)(=O)C1(CCC)CC1 [Compound 77]

RESULT:
["50 to 500 nM", "< 50 nM", "< 50 nM", "< 50 nM"]

QUERY: Quick one: IC50 of C=C[C@@H]1C[C@]1(NC(=O)[C@@H]1C[C@@H](Oc2cc(-c3ccccc3)nc3cc(OC)ccc23)CN1C(=O)[C@@H](NC(=O)COC)C(C)(C)C)C(=O)NS(=O)(=O)C1(Cc2ccccc2)CC1 [Compound 111] ?
RESULT: 50 to 500 nM
